- study target: MR-LBD fused to Gal4-DBD (Homo sapiens)
- Construct: MR-LBD was cloned by RT-PCR from total RNA isolated from HEK293 cells; expressed in transfected cells; host or cells: U2OS
- Sequence (P08235 726-964 limits assumed): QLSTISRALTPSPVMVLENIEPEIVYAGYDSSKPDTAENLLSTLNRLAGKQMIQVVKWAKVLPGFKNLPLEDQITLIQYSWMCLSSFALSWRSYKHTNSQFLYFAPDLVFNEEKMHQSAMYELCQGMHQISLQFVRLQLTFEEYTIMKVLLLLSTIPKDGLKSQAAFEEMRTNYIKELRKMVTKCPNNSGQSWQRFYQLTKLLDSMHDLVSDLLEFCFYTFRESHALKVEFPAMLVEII
- protocol: U2OS-MR-LBD/9xGal4UAS luciferase reporter cell line
- Assay type: cell-based
- setup conditions: read-out: Log EC50 (converted)
Counter-ions that a name gives are not always drawn.
measured endpoint: EC50

The following compounds have reported results that may help.
O=C(c1ccc(OCCN2CCCCC2)cc1)c1c(-c2ccc(O)cc2)sc2cc(O)ccc12 [Raloxifene hydrochloride, raloxifene hydrochloride]: > 10 µM
C[C@]12C=CC(=O)C=C1CC[C@H]1[C@@H]3C[C@@H](O)[C@](O)(C(=O)CO)[C@@]3(C)C[C@H](O)[C@@]12F: 0.0759 µM
CC1(C)NC(=O)N(c2ccc([N+](=O)[O-])c(C(F)(F)F)c2)C1=O [Nilutamide, nilutamide]: > 10 µM

EC50 of CC/C(=C(\c1ccccc1)c1ccc(OCCN(C)C)cc1)c1ccccc1 [Tamoxifen citrate, tamoxifen citrate] on MR-LBD fused to Gal4-DBD (Homo sapiens)?
> 10 µM

How about this compound: C#C[C@]1(O)CC[C@H]2[C@@H]3CCC4=Cc5oncc5C[C@]4(C)[C@H]3CC[C@@]21C
> 10 µM

How about this compound: C[C@]12C[C@H](O)[C@H]3[C@@H](CCC4=CC(=O)CC[C@@]43C)[C@@H]1CC[C@@H]2C(=O)CO
2.63e-05 µM
